Cited source: patent US10968225B2

molecular target: mutant CFTR (Homo sapiens, UniProt P13569, DEL508-508); construct: expressed in transfected cells; test: Fluorescence (HS-YFP) assay for CFTR activity, corrector assay; type: cell-based; conditions: CFBE41o- and FRT cells with stable expression of mutant CFTR, read-out: activity (EC50)
Sequence (P13569 with tags, fused parts or gaps DEL508-508): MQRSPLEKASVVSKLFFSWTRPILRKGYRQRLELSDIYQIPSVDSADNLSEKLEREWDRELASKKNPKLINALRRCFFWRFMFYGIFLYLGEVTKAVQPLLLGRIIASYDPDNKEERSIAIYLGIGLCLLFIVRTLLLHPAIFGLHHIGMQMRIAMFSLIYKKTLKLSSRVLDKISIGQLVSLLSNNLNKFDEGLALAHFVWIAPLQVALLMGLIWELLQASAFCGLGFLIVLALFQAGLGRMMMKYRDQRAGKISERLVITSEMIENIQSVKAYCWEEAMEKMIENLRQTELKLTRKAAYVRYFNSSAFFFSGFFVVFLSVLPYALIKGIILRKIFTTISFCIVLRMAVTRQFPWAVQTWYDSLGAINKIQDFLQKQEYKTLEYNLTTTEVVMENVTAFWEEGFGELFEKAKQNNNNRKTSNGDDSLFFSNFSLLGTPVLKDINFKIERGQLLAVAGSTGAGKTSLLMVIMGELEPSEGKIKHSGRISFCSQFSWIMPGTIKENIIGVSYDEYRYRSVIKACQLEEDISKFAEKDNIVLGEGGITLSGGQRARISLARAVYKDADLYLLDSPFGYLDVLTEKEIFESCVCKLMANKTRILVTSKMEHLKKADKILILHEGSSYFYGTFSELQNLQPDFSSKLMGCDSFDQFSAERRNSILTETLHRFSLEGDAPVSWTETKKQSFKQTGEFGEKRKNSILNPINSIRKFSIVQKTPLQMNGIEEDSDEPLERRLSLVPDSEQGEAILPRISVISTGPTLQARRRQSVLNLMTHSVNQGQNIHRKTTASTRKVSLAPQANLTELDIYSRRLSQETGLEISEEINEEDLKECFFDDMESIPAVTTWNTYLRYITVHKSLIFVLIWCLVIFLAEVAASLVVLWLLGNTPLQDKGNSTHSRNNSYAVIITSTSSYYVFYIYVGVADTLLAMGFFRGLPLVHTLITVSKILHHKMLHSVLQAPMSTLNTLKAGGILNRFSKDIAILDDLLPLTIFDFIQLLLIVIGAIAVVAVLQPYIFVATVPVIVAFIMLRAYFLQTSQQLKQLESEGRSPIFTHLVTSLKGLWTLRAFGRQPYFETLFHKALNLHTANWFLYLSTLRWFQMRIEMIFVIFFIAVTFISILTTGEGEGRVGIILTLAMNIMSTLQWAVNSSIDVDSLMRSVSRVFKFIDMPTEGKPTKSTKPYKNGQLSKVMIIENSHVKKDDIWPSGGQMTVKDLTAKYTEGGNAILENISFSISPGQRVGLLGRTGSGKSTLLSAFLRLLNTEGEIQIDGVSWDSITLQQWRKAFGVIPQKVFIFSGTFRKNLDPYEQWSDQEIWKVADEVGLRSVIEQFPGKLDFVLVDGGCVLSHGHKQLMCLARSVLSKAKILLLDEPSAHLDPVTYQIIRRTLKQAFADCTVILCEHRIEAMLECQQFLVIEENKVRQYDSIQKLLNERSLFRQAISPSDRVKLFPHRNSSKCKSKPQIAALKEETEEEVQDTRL
Parameter: EC50. Scope: all listed entries.

// sample CN(C(=O)c1cccc(-n2nc(C(F)(F)F)c3c2C(Oc2ncc(C(=O)O)cn2)COC3)c1)c1ccc2c(c1)OC(F)(F)O2 (racemic) [Compound 295] , its EC50 was 1 to 2 µM

Next:
Documented EC50 of CN(C(=O)c1cccc(-n2nc(C(F)(F)F)c3c2C(Oc2ccc(C(=O)O)cn2)COC3)c1)c1ccc2c(c1)OC(F)(F)O2 (racemic) [Compound 213] : < 1 µM

Value of measured EC50 for the entry CN(C(=O)c1cccc(-n2nc(C(F)(F)F)c3c2CCN(C(=O)C(C)(C)C)C3)c1)c1ccc2nccnc2c1 [Compound 141] : < 1 µM
